system: Peptococcus magnas A21676; assay: MIC, serial two-fold dilution method (anaerobic); format: cell-based; settings: Peptococcus magnas A21676; GAM agar medium; inoculum 10^7-10^8; read-out: minimum inhibitory concentration (MIC)
Measurement type: MIC (µg/mL)

• O=C(N[C@H](CO)[C@H](O)c1ccc([N+](=O)[O-])cc1)C(Cl)Cl = 1.6
• CC1(C)S[C@@H]2[C@H](NC(=O)[C@H](N)c3ccccc3)C(=O)N2[C@H]1C(=O)O = 0.1
• CC[C@H]1OC(=O)[C@H](C)[C@@H](O[C@H]2C[C@@](C)(OC)[C@@H](O)[C@H](C)O2)[C@H](C)[C@@H](O[C@@H]2O[C@H](C)C[C@H](N(C)C)[C@H]2O)[C@](C)(O)C[C@@H](C)C(=O)[C@H](C)[C@@H](O)[C@]1(C)O = 0.8
• CCC[C@@H]1C[C@@H](C(=O)N[C@@H]([C@H]2O[C@H](SC)[C@H](O)[C@@H](O)[C@H]2O)[C@H](C)Cl)N(C)C1 = 0.05

###

Reported MIC is given for each of the following molecules.
system: Staphylococcus aureus A9601; experiment: MIC, serial two-fold dilution method (aerobic); type: cell-based; details: Staphylococcus aureus A9601; Mueller-Hinton agar; inoculum 10^4; read-out: minimum inhibitory concentration (MIC)
Measurement type: MIC (µg/mL)

- NC[C@H]1O[C@H](O[C@H]2[C@H](O)[C@@H](O[C@H]3O[C@H](CO)[C@@H](O)[C@H](N)[C@H]3O)[C@H](N)C[C@@H]2N)[C@H](O)[C@@H](O)[C@@H]1O [Kanamycin]: 0.4
- O=C(N[C@H](CO)[C@H](O)c1ccc([N+](=O)[O-])cc1)C(Cl)Cl [Chloramphenicol]: 6.3
- CC1(C)S[C@@H]2[C@H](NC(=O)[C@H](N)c3ccccc3)C(=O)N2[C@H]1C(=O)O [Ampicillin]: 0.4
- CC[C@H]1OC(=O)[C@H](C)[C@@H](O[C@H]2C[C@@](C)(OC)[C@@H](O)[C@H](C)O2)[C@H](C)[C@@H](O[C@@H]2O[C@H](C)C[C@H](N(C)C)[C@H]2O)[C@](C)(O)C[C@@H](C)C(=O)[C@H](C)[C@@H](O)[C@]1(C)O [Erythromycin]: 0.4

###

test system: Staphylococcus aureus A20610; assay: MIC, serial two-fold dilution method (aerobic); type: cell-based; conditions: Staphylococcus aureus A20610; Mueller-Hinton agar; inoculum 10^4; read-out: minimum inhibitory concentration (MIC)
Measurement type: MIC (µg/mL)

* NC[C@H]1O[C@H](O[C@H]2[C@H](O)[C@@H](O[C@H]3O[C@H](CO)[C@@H](O)[C@H](N)[C@H]3O)[C@H](N)C[C@@H]2N)[C@H](O)[C@@H](O)[C@@H]1O | 100
* O=C(N[C@H](CO)[C@H](O)c1ccc([N+](=O)[O-])cc1)C(Cl)Cl | 50
* CC1(C)S[C@@H]2[C@H](NC(=O)[C@H](N)c3ccccc3)C(=O)N2[C@H]1C(=O)O | 12.5

###

test system: Bacteroides fragilis A20928-1; experiment: MIC, serial two-fold dilution method (anaerobic); format: cell-based; conditions: A209281; Bacteroides fragilis A20928-1; GAM agar medium; inoculum 10^7-10^8; read-out: minimum inhibitory concentration (MIC)
Measurement type: MIC (µg/mL)

* O=C(N[C@H](CO)[C@H](O)c1ccc([N+](=O)[O-])cc1)C(Cl)Cl [Chloramphenicol] | 3.1
* CCC[C@@H]1C[C@@H](C(=O)N[C@@H]([C@H]2O[C@H](SC)[C@H](O)[C@@H](O)[C@H]2O)[C@H](C)Cl)N(C)C1 [Clindamycin] | 0.025
* CC[C@H]1OC(=O)[C@H](C)[C@@H](O[C@H]2C[C@@](C)(OC)[C@@H](O)[C@H](C)O2)[C@H](C)[C@@H](O[C@@H]2O[C@H](C)C[C@H](N(C)C)[C@H]2O)[C@](C)(O)C[C@@H](C)C(=O)[C@H](C)[C@@H](O)[C@]1(C)O [Erythromycin] | 0.013
* CC1(C)S[C@@H]2[C@H](NC(=O)[C@H](N)c3ccccc3)C(=O)N2[C@H]1C(=O)O [Ampicillin] | 0.2

###

Reported MIC is given for each of the following molecules.
test system: Clostridium cylindrosporum A9562; experiment: MIC, serial two-fold dilution method (anaerobic); type: cell-based; conditions: Clostridium cylindrosporum A9562; GAM agar medium; inoculum 10^7-10^8; read-out: minimum inhibitory concentration (MIC)
Measurement type: MIC (µg/mL)

- CCC[C@@H]1C[C@@H](C(=O)N[C@@H]([C@H]2O[C@H](SC)[C@H](O)[C@@H](O)[C@H]2O)[C@H](C)Cl)N(C)C1: 0.8
- CC1(C)S[C@@H]2[C@H](NC(=O)[C@H](N)c3ccccc3)C(=O)N2[C@H]1C(=O)O: 0.8
- CC[C@H]1OC(=O)[C@H](C)[C@@H](O[C@H]2C[C@@](C)(OC)[C@@H](O)[C@H](C)O2)[C@H](C)[C@@H](O[C@@H]2O[C@H](C)C[C@H](N(C)C)[C@H]2O)[C@](C)(O)C[C@@H](C)C(=O)[C@H](C)[C@@H](O)[C@]1(C)O: 3.1
- O=C(N[C@H](CO)[C@H](O)c1ccc([N+](=O)[O-])cc1)C(Cl)Cl: 6.3

###

Reported MIC is given for each of the following compounds.
tested on: Clostridium perfringens A9635; assay: microbe, parasite or virus in culture; format: cell-based; details: Clostridium perfringens, A9635, read-out: minimum inhibitory concentration (MIC)
Measurement type: MIC (µg/mL)

* CCC[C@@H]1C[C@@H](C(=O)N[C@@H]([C@H]2O[C@H](SC)[C@H](O)[C@@H](O)[C@H]2O)[C@H](C)Cl)N(C)C1 | 0.025
* CN[C@H](CC(C)C)C(=O)N[C@H]1C(=O)N[C@@H](CC(N)=O)C(=O)N[C@H]2C(=O)N[C@H]3C(=O)N[C@H](C(=O)N[C@H](C(=O)O)c4cc(O)cc(O)c4-c4cc3ccc4O)[C@H](O)c3ccc(c(Cl)c3)Oc3cc2cc(c3O[C@@H]2O[C@H](CO)[C@@H](O)[C@H](O)[C@H]2O[C@H]2C[C@](C)(N)[C@H](O)[C@H](C)O2)Oc2ccc(cc2Cl)[C@H]1O | 1.6

###

tested on: Propionibacterium acnes A21953; test: MIC, serial two-fold dilution method (anaerobic); type: cell-based; settings: Cutibacterium acnes; Propionibacterium acnes A21953; GAM agar medium; inoculum 10^7-10^8; read-out: minimum inhibitory concentration (MIC)
Measurement type: MIC

* CC[C@H]1OC(=O)[C@H](C)[C@@H](O[C@H]2C[C@@](C)(OC)[C@@H](O)[C@H](C)O2)[C@H](C)[C@@H](O[C@@H]2O[C@H](C)C[C@H](N(C)C)[C@H]2O)[C@](C)(O)C[C@@H](C)C(=O)[C@H](C)[C@@H](O)[C@]1(C)O [Erythromycin] | 0.8 µg/mL
* CCC[C@@H]1C[C@@H](C(=O)N[C@@H]([C@H]2O[C@H](SC)[C@H](O)[C@@H](O)[C@H]2O)[C@H](C)Cl)N(C)C1 [Clindamycin] | 0.8 µg/mL
* O=C(N[C@H](CO)[C@H](O)c1ccc([N+](=O)[O-])cc1)C(Cl)Cl [Chloramphenicol] | 1.6 µg/mL
* CC1(C)S[C@@H]2[C@H](NC(=O)[C@H](N)c3ccccc3)C(=O)N2[C@H]1C(=O)O [Ampicillin] | < 0.0063 µg/mL

###

system: Bacteroides fragilis A21900; test: MIC, serial two-fold dilution method (anaerobic); format: cell-based; settings: Bacteroides fragilis A21900; GAM agar medium; inoculum 10^7-10^8; read-out: minimum inhibitory concentration (MIC)
Measurement type: MIC (µg/mL)

* CC1(C)S[C@@H]2[C@H](NC(=O)[C@H](N)c3ccccc3)C(=O)N2[C@H]1C(=O)O [Ampicillin] | 0.2
* CCC[C@@H]1C[C@@H](C(=O)N[C@@H]([C@H]2O[C@H](SC)[C@H](O)[C@@H](O)[C@H]2O)[C@H](C)Cl)N(C)C1 [Clindamycin] | 1.6
* O=C(N[C@H](CO)[C@H](O)c1ccc([N+](=O)[O-])cc1)C(Cl)Cl [Chloramphenicol] | 3.1
* CC[C@H]1OC(=O)[C@H](C)[C@@H](O[C@H]2C[C@@](C)(OC)[C@@H](O)[C@H](C)O2)[C@H](C)[C@@H](O[C@@H]2O[C@H](C)C[C@H](N(C)C)[C@H]2O)[C@](C)(O)C[C@@H](C)C(=O)[C@H](C)[C@@H](O)[C@]1(C)O [Erythromycin] | 0.4

###

test system: Clostridium chauvoei A9561; assay: MIC, serial two-fold dilution method (anaerobic); format: cell-based; details: Clostridium chauvoei A9561; GAM agar medium; inoculum 10^7-10^8; read-out: minimum inhibitory concentration (MIC)
Reported MIC is given for each of the following molecules.
Measurement type: MIC

* CCC[C@@H]1C[C@@H](C(=O)N[C@@H]([C@H]2O[C@H](SC)[C@H](O)[C@@H](O)[C@H]2O)[C@H](C)Cl)N(C)C1 | 0.025 µg/mL
* CC[C@H]1OC(=O)[C@H](C)[C@@H](O[C@H]2C[C@@](C)(OC)[C@@H](O)[C@H](C)O2)[C@H](C)[C@@H](O[C@@H]2O[C@H](C)C[C@H](N(C)C)[C@H]2O)[C@](C)(O)C[C@@H](C)C(=O)[C@H](C)[C@@H](O)[C@]1(C)O | 1.6 µg/mL
* O=C(N[C@H](CO)[C@H](O)c1ccc([N+](=O)[O-])cc1)C(Cl)Cl | 6.3 µg/mL
* CC1(C)S[C@@H]2[C@H](NC(=O)[C@H](N)c3ccccc3)C(=O)N2[C@H]1C(=O)O | 0.4 µg/mL
